- assay.system: human SARM1(50-724) (Homo sapiens, UniProt Q6SZW1)
- Construct: 40 nM human SARM1(50-724)
- assay.info: SARM1 NADase biochemical assay (HPLC peak areas of NAD and NAM)
- condition.details: 50 μM compound; NAM peak area; read-out: Avg NAM % inhibition at 50 μM
- Experimental: The reaction was incubated at room temperature for 60 minutes and quenched with 20 μL of 0.4% formic acid. […] Total run time for each sample was 4 minutes. […] Samples were run at a flow rate of 0.8 mL/min at 55° C. Peak areas of NAD and NAM were determined using OpenLAB CDS (Chem Station edition) software. For dose-response, the compound was diluted serially 1:3 in DMSO and added to the reaction starting at a final compound concentration of 100 μM in 1% DMSO.
inhibition at 50 µM values for the compounds below.

| compound | reported.result |
| --- | --- |
| O=C(Nc1ccn(Cc2ccncc2)n1)c1cc(Br)cs1 [Example 65] | 51 to 100% |
| O=C(Nc1ccn(Cc2ccncc2)n1)c1ccc(O)cc1 [Example 45] | 0 to 50% |
| O=C(Nc1ccn(Cc2ccncc2)n1)c1ccc(C(F)(F)F)cc1 [Example 57] | 0 to 50% |

// below: inhibition at 50 µM requested for another compound
# inhibition at 50 µM lookup, item c1cc(Cn2ccc(NC3CCC3)n2)ccn1 [Example 97] 0 to 50%

====

pIC50 values for the compounds below.
- assay.system: human SARM1(50-724) (Homo sapiens, UniProt Q6SZW1)
- Sequence (Q6SZW1 50-724): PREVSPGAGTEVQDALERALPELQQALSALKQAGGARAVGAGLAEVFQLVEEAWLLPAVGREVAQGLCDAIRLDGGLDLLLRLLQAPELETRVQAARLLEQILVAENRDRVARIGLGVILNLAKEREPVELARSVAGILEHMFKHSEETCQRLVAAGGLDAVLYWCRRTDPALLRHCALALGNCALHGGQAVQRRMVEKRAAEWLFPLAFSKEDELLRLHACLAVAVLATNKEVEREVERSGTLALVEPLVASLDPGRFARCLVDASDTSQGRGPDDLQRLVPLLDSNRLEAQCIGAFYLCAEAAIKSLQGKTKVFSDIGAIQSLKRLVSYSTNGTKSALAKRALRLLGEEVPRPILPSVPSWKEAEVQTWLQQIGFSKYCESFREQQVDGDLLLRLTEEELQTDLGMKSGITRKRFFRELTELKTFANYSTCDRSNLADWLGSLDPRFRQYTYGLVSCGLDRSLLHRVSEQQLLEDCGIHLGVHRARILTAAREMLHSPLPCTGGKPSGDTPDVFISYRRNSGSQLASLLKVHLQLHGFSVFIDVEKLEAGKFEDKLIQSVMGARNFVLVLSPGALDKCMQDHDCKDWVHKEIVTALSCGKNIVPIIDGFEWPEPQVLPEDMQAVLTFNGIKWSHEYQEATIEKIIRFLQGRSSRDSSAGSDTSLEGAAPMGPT
pIC50: −log10 of the molar value.

| compound | reported.result |
| --- | --- |
| N#CCc1ccn(Cc2ccncc2)n1 | 5.00 to 6.00 |

// below: pIC50 requested for another compound
# pIC50 lookup, item COc1ccc(S(=O)(=O)Nc2ccn(Cc3ccncc3)n2)cc1 5.00 to 6.00

====

- assay.system: human SARM1(50-724) (Homo sapiens, UniProt Q6SZW1)
- Sequence (Q6SZW1 50-724): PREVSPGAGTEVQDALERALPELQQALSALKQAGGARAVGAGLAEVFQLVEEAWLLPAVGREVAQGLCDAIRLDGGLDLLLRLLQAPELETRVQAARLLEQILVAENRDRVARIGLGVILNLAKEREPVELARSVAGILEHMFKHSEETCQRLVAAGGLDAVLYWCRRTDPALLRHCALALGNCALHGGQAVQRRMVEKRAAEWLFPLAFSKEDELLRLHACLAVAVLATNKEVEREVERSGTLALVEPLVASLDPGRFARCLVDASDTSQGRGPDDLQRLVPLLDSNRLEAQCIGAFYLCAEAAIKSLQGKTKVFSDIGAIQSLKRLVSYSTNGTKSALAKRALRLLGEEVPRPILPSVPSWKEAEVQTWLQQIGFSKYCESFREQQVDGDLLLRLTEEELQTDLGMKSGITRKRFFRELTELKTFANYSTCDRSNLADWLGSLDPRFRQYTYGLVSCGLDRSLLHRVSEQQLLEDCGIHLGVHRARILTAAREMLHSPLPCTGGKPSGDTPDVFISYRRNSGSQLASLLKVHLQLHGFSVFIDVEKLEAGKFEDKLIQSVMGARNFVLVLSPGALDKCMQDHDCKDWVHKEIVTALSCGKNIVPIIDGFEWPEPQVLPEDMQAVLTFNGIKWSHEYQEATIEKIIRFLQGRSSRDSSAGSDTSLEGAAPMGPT
reported.endpoint: IC50

Below: 8 molecules and their reported IC50.
| molecule | assay.system | IC50 |
| --- | --- | --- |
| FC(F)(F)Cn1ccc(Cc2ccncc2)n1 | human SARM1(50-724) (Homo sapiens, UniProt Q6SZW1) | 1 to 10 µM |
| FC(F)CNc1ccn(Cc2ccncc2)n1 | human SARM1(50-724) (Homo sapiens, UniProt Q6SZW1) | 1 to 10 µM |
| CC(c1ccn(CC(F)(F)F)n1)c1ccncc1Cl (racemic) | human SARM1(50-724) (Homo sapiens, UniProt Q6SZW1) | 1 to 10 µM |
| CC(c1ccncc1)c1ccn(CC(F)(F)F)n1 (racemic) | human SARM1(50-724) (Homo sapiens, UniProt Q6SZW1) | < 1 µM |
| FC(F)(F)Cn1ccc(C(Cl)c2ccncc2)n1 (racemic) | human SARM1(50-724) (Homo sapiens, UniProt Q6SZW1) | 10 to 100 µM |
| Cc1cc(Cc2ccncc2)nn1CC(F)(F)F | human SARM1(50-724) (Homo sapiens, UniProt Q6SZW1) | 10 to 100 µM |
| O=C(Nc1ccn(Cc2ccncc2)n1)C(C(F)(F)F)C(F)(F)F | human SARM1(50-724) (Homo sapiens, UniProt Q6SZW1) | 1 to 10 µM |
| FC(F)(F)CNc1ccn(Cc2ccncc2)n1 | human SARM1(50-724) (Homo sapiens, UniProt Q6SZW1) | 10 to 100 µM |

// below: IC50 requested for another molecule
Notebook entry, human SARM1(50-724) (Homo sapiens, UniProt Q6SZW1) assay: IC50 of Cc1cnccc1Cn1ccc(NCC(F)(F)F)n1 = ? 10 to 100 µM

Data provenance: patent US11945796B2
